target: Tyro3 (Homo sapiens (Human), UniProt Q06418); settings: read-out: IC50 Tyro3
Sequence (Q06418 41-890 limits assumed): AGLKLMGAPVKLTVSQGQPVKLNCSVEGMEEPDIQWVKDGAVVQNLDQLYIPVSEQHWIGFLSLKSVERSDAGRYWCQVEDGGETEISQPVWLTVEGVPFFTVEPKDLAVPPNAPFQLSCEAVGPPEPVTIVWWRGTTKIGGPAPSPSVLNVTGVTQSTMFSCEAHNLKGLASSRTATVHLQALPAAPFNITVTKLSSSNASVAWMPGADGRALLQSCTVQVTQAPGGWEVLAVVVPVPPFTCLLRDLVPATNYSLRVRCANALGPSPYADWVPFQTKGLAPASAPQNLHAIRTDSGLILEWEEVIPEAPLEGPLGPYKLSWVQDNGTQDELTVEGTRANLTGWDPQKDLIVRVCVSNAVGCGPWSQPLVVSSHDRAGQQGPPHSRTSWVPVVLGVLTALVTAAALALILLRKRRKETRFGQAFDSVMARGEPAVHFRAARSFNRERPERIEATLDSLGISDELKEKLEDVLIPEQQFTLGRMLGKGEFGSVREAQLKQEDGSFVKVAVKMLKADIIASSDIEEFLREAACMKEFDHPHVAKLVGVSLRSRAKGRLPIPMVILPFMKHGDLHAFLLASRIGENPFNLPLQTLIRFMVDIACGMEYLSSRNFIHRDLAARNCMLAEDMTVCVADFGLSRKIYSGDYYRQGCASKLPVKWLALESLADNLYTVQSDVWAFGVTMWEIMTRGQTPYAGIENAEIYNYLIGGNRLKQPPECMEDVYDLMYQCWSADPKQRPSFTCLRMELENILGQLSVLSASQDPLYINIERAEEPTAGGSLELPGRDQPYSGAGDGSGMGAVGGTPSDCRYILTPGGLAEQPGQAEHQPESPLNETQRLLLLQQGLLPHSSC
experimental-readout: IC50 (nM)

Recorded results for 5 molecules are shown here.
{"molecule": "CCCCNc1ncc(C(=O)Nc2ccc(CCN3CCN(C)CC3)cc2)c(N[C@H]2CC[C@H](O)CC2)n1 [UNC2806A]", "val": 98}
{"molecule": "CCCCNc1ncc(-c2ccc(CC3CCNC3)cn2)c(N[C@H]2CC[C@H](O)CC2)n1 (some centres unmarked) [UNC4386A]", "val": 53}
{"molecule": "CCCCNc1ncc(-c2ccc(C=C3CCN(C)CC3)cn2)c(N[C@H]2CC[C@H](O)CC2)n1 [UNC4338A]", "val": 20}
{"molecule": "CCCCNc1ncc(C(=O)NCc2ccc(-c3ccccc3)nc2)c(N[C@H]2CC[C@H](O)CC2)n1 [UNC4234A]", "val": 195}
{"molecule": "CCCCNc1ncc(-c2ccccn2)c(Nc2ccc(O)cc2)n1 [UNC2998A]", "val": 363}

(1) CCCCNc1ncc(C(=O)NCC2CCNCC2)c(N[C@H]2CC[C@H](O)CC2)n1 [UNC4287A]
(2) CCCCNc1ncc(-c2cc(NC)ncn2)c(N[C@H]2CC[C@H](O)CC2)n1 [UNC3126A]
(3) CCCCNc1ncc(-c2ccc(NC3CC3)nn2)c(N[C@H]2CC[C@H](O)CC2)n1 [UNC3069A]
(4) CCCCNc1ncc(-c2ccc(CCN3CCCC3)cn2)c(N[C@H]2CC[C@H](O)CC2)n1 [UNC4221A]
**Query** Task field, ranking: reported IC50, descending order. Sort the labels as requested; that list is your answer.
**Result** 1, 3, 2, 4

(I) O[C@H]1CC[C@H](Nc2nc(NCCC3CC3)ncc2-c2ccc(CN3CCCC3)cn2)CC1 [UNC4197A]
(II) CCCCNc1ncc(C(=O)NCc2ccc(-n3ccnc3-c3ccccc3)cc2)c(N[C@H]2CC[C@H](O)CC2)n1 [UNC2957A]
(III) CCCCNc1ncc(C(=O)NC2CCN(Cc3cccnc3)CC2)c(N[C@H]2CC[C@H](O)CC2)n1 [UNC2802A]
(IV) CCCCNc1ncc(C(=O)NCc2ccc(-c3c(C)noc3C)nc2)c(N[C@H]2CC[C@H](O)CC2)n1 [UNC4260A]
(V) CCCCNc1ncc(-c2ccc(CCCN3CCCC3)cn2)c(N[C@H]2CC[C@H](O)CC2)n1 [UNC4220A]
**Query** Task field, ranking: reported IC50, descending order. Sort the labels as requested; that list is your answer.
**Result** II, IV, III, V, I
(II: 975 nM, IV: 256 nM, III: 123 nM, V: 68 nM, I: 24 nM)

(A) CCCCNc1ncc(-c2ccc(CN3CCNCC3(C)C)cn2)c(NC2CCC(O)CC2)n1 (centres unmarked) [UNC4110A]
(B) CCCCNc1ncc(-c2ccc(CN3C[C@H](C)NC[C@H]3C)cn2)c(NC2CCC(O)CC2)n1 (some centres unmarked) [UNC4109A]
(C) CCCCNc1ncc(C(=O)NC2CCN(CC3CCCC3)CC2)c(N[C@H]2CC[C@H](O)CC2)n1 [UNC2878A]
(D) CCCCNc1ncc(-c2cn(C(c3ccccc3)(c3ccccc3)c3ccccc3)cn2)c(N[C@H]2CC[C@H](O)CC2)n1 [UNC3117A]
(E) CCCCNc1ncc(C(=O)NCc2ccc3ccccc3n2)c(N[C@H]2CC[C@H](O)CC2)n1 [UNC4286A]
**Query** Task field, ranking: reported IC50, descending order. Sort the labels as requested; that list is your answer.
**Result** D, E, C, B, A

(A) CCCCNc1ncc(C(=O)NCc2ccc(-c3cccnc3)nc2)c(N[C@H]2CC[C@H](O)CC2)n1 [UNC4236A]
(B) CCCCNc1ncc(C(=O)NCc2ccc(N3CCCC3)cc2)c(N[C@H]2CC[C@H](O)CC2)n1 [UNC2886A]
(C) CCCCNc1ncc(-c2cn(C)cn2)c(N[C@H]2CC[C@H](O)CC2)n1 [UNC3116A]
(D) CCCCNc1ncc(C(=O)NCC(=O)N2CCCCC2)c(N[C@H]2CC[C@H](O)CC2)n1 [UNC2604A]
(E) CCCCNc1ncc(-c2cc(Cl)c(CN3CCCC3)cn2)c(N[C@H]2CC[C@H](O)CC2)n1 [UNC4222A]
**Query** Rank ascending by IC50. Sort the labels as requested; that list is your answer.
**Result** E, A, B, D, C

(1) CCCCNc1ncc(C(=O)NCc2ccc(-c3ccccc3OC)nc2)c(N[C@H]2CC[C@H](O)CC2)n1 [UNC4255A]
(2) CCCCNc1ncc(-c2ncc(CN3CCN(C)CC3)s2)c(N[C@H]2CC[C@H](O)CC2)n1 [UNC3121A]
**Query** Lower IC50: 1 or 2 ? Kindly give the label for the entry you pick.
**Result** 2
